Target: T1, full-length human TIGIT on CHO-K1 cells (CHO-K1 human TIGIT) (human, UniProt Q495A1 22-244)
T1 construct: NCBI XP_024309156.1; entry includes the signal peptide; also called high expression strain 1D2; medium expression strain 2D10
T1 sequence: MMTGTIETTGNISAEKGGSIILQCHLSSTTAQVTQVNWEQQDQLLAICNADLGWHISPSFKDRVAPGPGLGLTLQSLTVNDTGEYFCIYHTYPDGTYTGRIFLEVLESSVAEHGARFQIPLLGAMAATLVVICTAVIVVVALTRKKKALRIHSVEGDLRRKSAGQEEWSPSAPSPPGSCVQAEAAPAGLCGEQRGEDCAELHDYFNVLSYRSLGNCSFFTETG
Experiment: FACS, competition: Bio-CD155-His to CHO-K1 human TIGIT
For each record, write down the corresponding IC50.
Field format: number, assumed nM, no unit text.

Return IC50 (reported value) for this binder: TIGIT-F2-005 (antibody, V domains shown, mouse hybridoma antibody; variable domains as printed for TIGIT-CHI-005; tie rests on the number 005 only; also called mouse antibody TIGIT-005) VH: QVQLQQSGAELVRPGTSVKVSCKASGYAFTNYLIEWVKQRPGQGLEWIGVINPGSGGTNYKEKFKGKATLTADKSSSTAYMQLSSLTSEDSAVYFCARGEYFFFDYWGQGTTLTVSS VL: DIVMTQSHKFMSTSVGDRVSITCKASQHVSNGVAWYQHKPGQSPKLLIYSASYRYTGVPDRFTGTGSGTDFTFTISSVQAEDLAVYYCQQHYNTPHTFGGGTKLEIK
0.174

Quote IC50 reported for TIGIT-F5-070 (antibody, V domains shown, mouse hybridoma antibody; variable domains as printed for TIGIT-CHI-070; tie rests on the number 070 only; also called mouse antibody TIGIT-070) VH: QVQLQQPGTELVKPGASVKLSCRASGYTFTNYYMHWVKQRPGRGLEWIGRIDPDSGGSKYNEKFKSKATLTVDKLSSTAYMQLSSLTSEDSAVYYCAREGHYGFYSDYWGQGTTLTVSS VL: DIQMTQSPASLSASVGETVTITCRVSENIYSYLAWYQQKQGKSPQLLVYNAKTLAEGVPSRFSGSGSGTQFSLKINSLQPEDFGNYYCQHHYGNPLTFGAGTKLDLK please.
0.34

Supply recorded IC50 for TIGIT-F2-006 (antibody, V domains shown, mouse hybridoma antibody; variable domains as printed for TIGIT-CHI-006; tie rests on the number 006 only; also called mouse antibody TIGIT-006) VH: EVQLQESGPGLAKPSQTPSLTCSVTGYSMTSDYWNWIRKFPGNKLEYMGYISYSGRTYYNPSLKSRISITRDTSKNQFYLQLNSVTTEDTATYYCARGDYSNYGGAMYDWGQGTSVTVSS VL: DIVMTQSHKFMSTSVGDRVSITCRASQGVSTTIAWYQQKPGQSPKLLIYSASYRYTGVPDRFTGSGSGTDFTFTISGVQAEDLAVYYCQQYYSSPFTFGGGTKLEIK here.
0.215

Write down IC50 measured for item TIGIT-F2-002 (antibody, V domains shown, mouse hybridoma antibody; variable domains are those printed for the chimeric TIGIT-CHI-002 built from the mouse antibody; tie rests on the number 002 only; also called mouse antibody TIGIT-002) VH: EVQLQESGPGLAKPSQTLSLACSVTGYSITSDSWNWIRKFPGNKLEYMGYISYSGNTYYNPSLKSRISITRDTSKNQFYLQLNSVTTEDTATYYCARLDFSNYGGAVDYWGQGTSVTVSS VL: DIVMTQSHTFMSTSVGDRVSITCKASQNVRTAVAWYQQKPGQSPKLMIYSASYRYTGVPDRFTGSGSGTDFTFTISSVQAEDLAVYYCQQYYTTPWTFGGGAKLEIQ
0.204
